# TARGET_OR_SYSTEM: KRAS G12V (Homo sapiens, UniProt P01116+P62937, G12V)
# Sequence (P01116 1-169 isoform P01116-2 G12V limits assumed): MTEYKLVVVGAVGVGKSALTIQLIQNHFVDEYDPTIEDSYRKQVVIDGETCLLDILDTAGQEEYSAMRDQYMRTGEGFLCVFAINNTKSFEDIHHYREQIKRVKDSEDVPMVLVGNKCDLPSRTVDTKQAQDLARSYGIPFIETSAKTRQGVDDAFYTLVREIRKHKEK
# Sequence (P62937 whole entry): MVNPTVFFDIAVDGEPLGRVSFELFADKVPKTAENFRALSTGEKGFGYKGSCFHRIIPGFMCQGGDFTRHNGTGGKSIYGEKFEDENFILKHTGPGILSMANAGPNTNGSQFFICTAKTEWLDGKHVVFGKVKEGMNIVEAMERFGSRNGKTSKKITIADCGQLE
# PROCEDURE_DETAILS: Disruption of BRAF RBD interaction with Ras (FRET / MOA assay, with Cyclophilin A)
# Format: biochemical
# CONDITION_PARAMETERS: KRAS G12V; read-out: KRAS G12V FRET data IC50

# COMPOUND, IC50
measured = [
    ("CCn1c(-c2cccnc2[C@H](C)OC)c2c3cc(ccc31)-c1csc(n1)C[C@H](NC(=O)[C@H](C(C)C)N(C)C(=O)N1CC(N(C)C)C1)C(=O)N1CCC[C@H](N1)C(=O)OCC(C)(C)C2 (racemic) [Example A170]", "0.1 to 1 µM"),
    ("CCn1c(-c2cccnc2[C@H](C)OC)c2c3cc(ccc31)N1CCO[C@@](C)(CC(NC(=O)[C@H](C(C)C)N(C)C(=O)C3(F)CCN(C(=O)C#CC(C)(C)N(C)C)CC3)C(=O)N3CCC[C@H](N3)C(=O)OCC(C)(C)C2)C1 (stereo partly shown) [Example A550]", "0.1 to 1 µM"),
    ("CCn1c(-c2cccnc2[C@H](C)OC)c2c3cc(ccc31)-c1csc(n1)C[C@H](NC(=O)[C@H](C(C)C)N(C)C(=O)N1CCN3CCOC[C@H]3C1)C(=O)N1CCC[C@H](N1)C(=O)OCC(C)(C)C2 [Example A548]", "0.1 to 1 µM"),
    ("C=CC(=O)N1C[C@@H](C(=O)N(C)[C@H](C(=O)N[C@H]2Cc3cccc(c3)-c3ccc4c(c3)c(c(-c3cccnc3[C@H](C)OC)n4CC)CC(C)(C)COC(=O)[C@@H]3CCCN(N3)C2=O)C(C)C)[C@@H](C(F)(F)F)C1 [Example A401]", "1 to 10 µM"),
]

Data origin, for the record: patent US20230233569A1
